Would you kindly list growth for each of these compounds?
Tested on: LOX IMVI melanoma
Assay: NCI-60 one-dose screen, 48 h (100 = growth as untreated, 0 = no growth, -100 = all killed)
Conditions: 10 µM
About 83,000 compounds went through this panel and 20% of them were active in at least one assay; those are over-represented in the sample as a whole.
Give bare numbers, in %.

Guide cases for growth, answers given:
Compound: COC(=O)C[C@](O)(CCC(C)C)C(=O)O[C@@H]1C(OC)=C[C@]23CCCN2CCc2cc4c(cc2[C@H]13)OCO4
Endpoint: growth
Experimental Result: -82.6
--
Compound: COc1cc2cc(C(=O)N3C[C@@H](CCl)c4c3cc(OC(=O)N3CCN(C(=O)CCC(=O)N5CCN(C)CC5)[C@@H]5CSSC[C@@H]53)c3ccccc43)[nH]c2c(OC)c1OC
Endpoint: growth
Experimental Result: -100
--
Compound: CC[C@]12C=CCN3CC[C@@]4(c5ccc(OC)cc5N(C)[C@H]4[C@@](O)(C(=O)OC)[C@@H]1OC(=O)CCCC[P+](c1ccc(OC)cc1)(c1ccc(OC)cc1)c1ccc(OC)cc1)[C@@H]32
Endpoint: growth
Experimental Result: -96.4
--
Compound: CC12OOC(C)(OO1)C2CCC(=O)OCCNc1ccnc2cc(Cl)ccc12 (stereo not drawn)
Endpoint: growth
Experimental Result: -92.1
--
Compound: C[C@H]1[C@H](OC(=O)CCC(=O)N(CCCc2cn(-c3ccc([N+](=O)[O-])cc3)nn2)CCNc2ccnc3cc(Cl)ccc23)O[C@@H]2OC3(C)CC[C@H]4[C@H](C)CC[C@@H]1[C@@]24OO3
Endpoint: growth
Experimental Result: 21.7
--
Compound: COCCOCCOCCOc1ccc(-n2cc(-c3ccc(O[C@H]4O[C@@H]5OC6(C)CC[C@H]7[C@H](C)CC[C@@H]([C@H]4C)[C@@]57OO6)cc3)nn2)cc1
Endpoint: growth
Experimental Result: 36.1
--
Compound: CC[C@]12C=CCN3CC[C@@]4(c5ccc(OC)cc5N(C)[C@H]4[C@@](O)(C(=O)OC)[C@@H]1OC(=O)CCCC[P+](c1ccc(C)cc1)(c1ccc(C)cc1)c1ccc(C)cc1)[C@@H]32
Endpoint: growth
Experimental Result: -94.5
--
Compound: O=C(NCCCCC(c1ccc(F)cc1)c1ccc(F)cc1)Nc1ccc([N+](=O)[O-])c(C(F)(F)F)c1
Endpoint: growth
Experimental Result: -73.8
--
Compound: COCCOCCOCCOc1ccc(-n2cc(CCCN(CCNc3ccnc4cc(Cl)ccc34)C(=O)CCC(=O)O[C@@H]3O[C@@H]4OC5(C)CC[C@H]6[C@H](C)CC[C@@H]([C@H]3C)[C@@]46OO5)nn2)cc1
Endpoint: growth
Experimental Result: 1.51
--
Compound: Cc1ccc2[nH]c(=S)n(-c3ccc(F)cc3)c(=O)c2c1
Endpoint: growth
Experimental Result: 92.7

Quick batch: growth for everything below.
1. O=C(NC([Se])=NC1CCCCC1)c1ccc2c(c1)OCO2
2. C[C@H]1[C@@H](CC(=O)N[C@@H](Cc2coc3ccccc23)B(O)O)O[C@@H]2OC3(C)CC[C@H]4[C@H](C)CC[C@@H]1[C@@]24OO3
3. C[C@H]1[C@@H](Oc2ccc(-c3cn(-c4ccnc5cc(Cl)ccc45)nn3)cc2)O[C@@H]2OC3(C)CC[C@H]4[C@H](C)CC[C@@H]1[C@@]24OO3

1. 81.6
2. -92.3
3. 10.9
